# Protocol: Nephrotoxicity test, renal cytotoxicity by MTT method
# Type: cell-based
# Experimental Conditions: African green monkey
Where a SMILES comes first, the peptide text is derived from it. Bridges are numbered along the chain shown (N, C = ends). [ ]: non-standard residue; d: D form. The star is where a group is joined. Heptanoyl(6-Me) = CC(C)CCCCC(=O)*; X2 = CC[C@H](C)CCCCC(=O)*; Dab = NCC[C@H](N)C(=O)O; Nva = CCC[C@H](N)C(=O)O
IC50 at 72 h reference
Kindly answer with a numeric value in µg/mL, unit omitted.

Molecule: CCC[C@@H]1NC(=O)[C@@H](CC(C)C)NC(=O)[C@H](CCN)NC(=O)[C@@H](NC(=O)[C@H](CCN)NC(=O)[C@@H](NC(=O)[C@H](CCN)NC(=O)CCCCC(C)C)[C@@H](C)O)CCNC(=O)[C@H]([C@@H](C)O)NC(=O)[C@H](CCN)NC(=O)[C@H](CCN)NC1=O [Compound 77] ({Heptanoyl(6-Me)}-[Dab]T[Dab][Dab][Dab][dL][Nva][Dab][Dab]T; lactam 4-C)
IC50 at 72 h (µg/mL): 168

Here's the next entry for you.
Inquiry: GET /values?readout=IC50 at 72 h&item= CC[C@H](C)CCCCC(=O)N[C@@H](CCN)C(=O)N[C@H](C(=O)N[C@H](CO)C(=O)N[C@H]1CCNC(=O)[C@H]([C@@H](C)O)NC(=O)[C@H](CCN)NC(=O)[C@H](CCN)NC(=O)[C@H]([C@@H](C)O)NC(=O)[C@@H](Cc2ccccc2)NC(=O)[C@H](CCN)NC1=O)[C@@H](C)O [Compound 115] (X2-[Dab]T[dS][Dab][Dab][dF]T[Dab][Dab]T; lactam 4-C)
Reply text: 160
